Below, each entry is listed alongside its reported apparent KD of MS2 coat protein.
# System: MS2 coat protein
# METHOD NOTES: apparent KD of MS2 coat protein; higher = weaker reporter binding
# TEST CONTEXT: Eterna round: R107; input ligand: tryptophan 2.4 mM

The examples below pair each entry with its known result.
SEQUENCE CONTENT	apparent KD of MS2 coat protein
ACAUGAGGAUCACCCAUGUCACUCGUGUUCCGAGGACCGGUACGGCCGCCACUCGGUCCUCGCGAGGAUGGUCAAAGACUAUCCA [Omei Trp A SS B v2]	48.6 nM
AUAGUCUUGAGUGAUACCAGACUACAUGAGGAUCACCCAUGUUUCUUUUGGUUAUCAUGUGUCCCUUGGCAGCACGCAUGUAUAG [JR_ExcTheophyB_Sub014]	12.6 nM
UAUAAAAUAACAGAUACCAGCGUGUUAUAAAACAUGAGGAUCACCCAUGUAGUGAUCAAGCGCCCUUGGCAGCUGGUAUUUUAUG [7.C]	58.1 nM
CGACACCAGGCAAUCCAUCACCCGGCUGAUACCAGCUCUUUUGGAAGCCCUUGGCAGCAGAGAACAUGAGGAUCACCCAUGUCAG [theeternabot_exclusion_MS2_Theo_A_18]	17 nM
UAUAUAUAUAGUGAUACCAGCAGAGAAAACGUUUAUCCUAACAUGAGGAUCACCCAUGUAUGCCCUUGGCAGCGUUAUAUAUAUA [8.E]	21.9 nM

**Query** What value of apparent KD of MS2 coat protein on MS2 coat protein does UUUACAUGAGGAUCACCCAUGUGCCAUGAUACCAGACAUGAAAAUGUCCCUUGGCAGCAUGAAAGAUCCACGUCGGAAACGACGG [Krpole] have?
**Result** 113 nM

**Query** Moving on to the next sequence: AGGACAUGAGGAUCACCCAUGUACACUGAAGGAGCGUCGAGAACGACAGGUAGGUCGCAGGCUAAGGAAGGUGAUGCUCAAGAAG [Exclusion Arginine A GF6]
**Result** 27.1 nM

**Query** Moving on to the next sequence: GCACAUGAGGAUCACCCAUGUACAACUGAAGGAGCGAGACAGAACUCAGGUAGGUCGCAGAAUGCACAAUAGCAUACGACAUGGG [Exclusion Arginine A GF20]
**Result** 24.2 nM

**Query** Moving on to the next sequence: GCACCAGGUACGGAUACCAGCUAUAGGCCCUAUGGGCGACAUGAGGAUCACCCAUGUAAUGGCCCUUGGCAGCUGUACCUGGUGC [SSThB NP+V+V2 #10 +-Same Structure]
**Result** 169 nM

**Query** Moving on to the next sequence: AUCGUACCUGAUGAUACCAGCAAGUGAUCAUAACAUGAGGAUCACCCAUGUAAUCAGUGAUGCCCUUGGCAGCAUAAUCGAUACA [Same State - Theophylline B (Freestyle 4)]
**Result** 164 nM

**Query** Moving on to the next sequence: ACUAGUUGUGCAGAUACCAGACAUGAGGAUCACCCAUGUUUGGGAUCUAAUGAUCAUCCUGUCCCUUGGCAGCUGUACAUCUAGA [Omei Theo B Exc v2]
**Result** 89.9 nM

**Query** Moving on to the next sequence: UCGCACAUGAGGAUCACCCAUGUACUAGAUACCAGUGACGCGGUGCACCCUUGGCAGCUGGUGCUGAGUGAUGGUUCCCUCGGCA [Exclusion Theophylline A GF8]
**Result** 112 nM
